The reported measurements were obtained from patent US10092551B2.

Biological target: human V1a receptor (Homo sapiens (Human), UniProt P37288)
Sequence (P37288 whole entry): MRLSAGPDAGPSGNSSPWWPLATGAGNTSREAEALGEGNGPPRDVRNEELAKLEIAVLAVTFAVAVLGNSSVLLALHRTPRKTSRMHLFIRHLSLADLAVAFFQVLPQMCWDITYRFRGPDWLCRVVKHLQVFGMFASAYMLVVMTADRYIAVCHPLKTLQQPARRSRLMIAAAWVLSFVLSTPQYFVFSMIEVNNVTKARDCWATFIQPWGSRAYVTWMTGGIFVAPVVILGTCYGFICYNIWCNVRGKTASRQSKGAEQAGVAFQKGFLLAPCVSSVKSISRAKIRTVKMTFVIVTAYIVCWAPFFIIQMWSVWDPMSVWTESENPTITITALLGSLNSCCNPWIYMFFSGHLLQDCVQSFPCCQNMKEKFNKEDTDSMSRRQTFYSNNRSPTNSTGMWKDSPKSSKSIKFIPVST
Assay: human V1a receptor binding studies (3H-Vasopressin, SPA beads)
Details: membranes of HEK293 cells transiently transfected with human V1a receptor, Ki by Cheng-Prussoff
propertyName: pKi hV1a
One number for each entry.

Previously resolved entries follow.
[
  {
    "structure": "C/C(=C1/SC(N2CCC3(CC2)OCc2ncccc23)=NC1=O)c1ccc(C)nc1",
    "pKi hV1a": 7.1
  },
  {
    "structure": "C/C(=C1\\SC(N2CCC3(CC2)OCc2ccccc23)=NC1=O)c1ncccc1C",
    "pKi hV1a": 8.7
  },
  {
    "structure": "O=C1N=C(N2CCC3(CC2)OCc2ccccc23)S/C1=C\\c1ccc(Cl)cc1",
    "pKi hV1a": 7.8
  },
  {
    "structure": "O=C1N=C(N2CCC3(CC2)OCc2ccccc23)S/C1=C1/COCc2ccccc21",
    "pKi hV1a": 8.9
  }
]

For every listed record, write down its pKi hV1a.
1. COCC(COC)=C1SC(N2CCC3(CC2)OCc2ncccc23)=NC1=O
2. O=C1N=C(N2CCC3(CC2)OCc2ccccc23)S/C1=C(/CF)c1ccc(Cl)cc1
3. O=C1N=C(N2CCC3(CC2)OCc2ccccc23)S/C1=C\c1ccccc1

1: 7.0; 2: 9.4; 3: 8.4

// compound O=C1N=C(N2CCC3(CC2)OCc2ccccc23)SC1=C(C1CCCC1)C1CCCC1 , assay human V1a receptor (Homo sapiens (Human), UniProt P37288), pKi hV1a value: 7.6

---

Target: human V1a receptor (Homo sapiens (Human))
Test: human V1a receptor binding studies (3H-Vasopressin, SPA beads)
Conditions: membranes of HEK293 cells transiently transfected with human V1a receptor, Ki by Cheng-Prussoff
Could you label it TRUE if measured pKi hV1a is 8 or higher, and FALSE otherwise?

[
  {
    "compound": "C/C(=C1/SC(N2CCC3(CC2)OCc2ccccc23)=NC1=O)c1ccncc1",
    "category": "TRUE"
  },
  {
    "compound": "C/C(=C1/SC(N2CCC3(CC2)OCc2ccccc23)=NC1=O)c1cccnc1Cl",
    "category": "TRUE"
  },
  {
    "compound": "C/C(=C1/SC(N2CCC3(CC2)OCc2ccccc23)=NC1=O)c1cc2ncccc2o1",
    "category": "FALSE"
  },
  {
    "compound": "CC(C)(C)[Si](C)(C)OC/C(=C1\\SC(N2CCC3(CC2)OC(=O)c2ccccc23)=NC1=O)c1ccc(Cl)nc1",
    "category": "FALSE"
  },
  {
    "compound": "O=C1N=C(N2CCC3(CC2)OCc2ccccc23)SC1=C1c2ccccc2Oc2ccccc21",
    "category": "TRUE"
  }
]

Entry CC/C(=C1/SC(N2CCC3(CC2)OCc2ccccc23)=NC1=O)c1ccncc1 : is its pKi hV1a no less than 8?
TRUE

---

Target: human V1a receptor (Homo sapiens (Human), UniProt P37288)
Assay: human V1a receptor binding studies (3H-Vasopressin, SPA beads)
Settings: membranes of HEK293 cells transiently transfected with human V1a receptor, Ki by Cheng-Prussoff
propertyName: pKi hV1a

Previously resolved entries follow.
[
  {
    "compound": "CC/C(=C1\\SC(N2CCC3(CC2)OCc2ccccc23)=NC1=O)c1ccc(Cl)cc1",
    "pKi hV1a": 8.2
  },
  {
    "compound": "C/C(=C1/SC(N2CCC3(CC2)OCc2ncccc23)=NC1=O)c1ccc(Cl)nc1",
    "pKi hV1a": 7.9
  },
  {
    "compound": "Cc1cc(/C=C2\\SC(N3CCC4(CC3)OCc3ccccc34)=NC2=O)no1 [Example 93]",
    "pKi hV1a": 8.1
  },
  {
    "compound": "CC(C)(C)[Si](C)(C)OC/C(=C1\\SC(N2CCC3(CC2)OCc2ccccc23)=NC1=O)c1ccc(Cl)nc1",
    "pKi hV1a": 7.8
  }
]

Documented pKi hV1a of O=C1N=C(N2CCC3(CC2)OCc2ccccc23)S/C1=C1/CCCOC1 : 7.8

---

Target: human V1a receptor (Homo sapiens (Human), UniProt P37288)
Assay: human V1a receptor binding studies (3H-Vasopressin, SPA beads)
Conditions: membranes of HEK293 cells transiently transfected with human V1a receptor, Ki by Cheng-Prussoff
propertyName: pKi hV1a
Numbers only.

Previously resolved entries follow.
[
  {
    "structure": "C/C(=C1/SC(N2CCC3(CC2)OCc2ccccc23)=NC1=O)c1ccco1",
    "studyTarget": "human V1a receptor (Homo sapiens (Human), UniProt P37288)",
    "propertyName": "pKi hV1a",
    "recordedValue": 8.9
  },
  {
    "structure": "C/C(=C1/SC(N2CCC3(CC2)OCc2ncccc23)=NC1=O)c1ccc(Cl)cc1",
    "studyTarget": "human V1a receptor (Homo sapiens (Human), UniProt P37288)",
    "propertyName": "pKi hV1a",
    "recordedValue": 9.3
  },
  {
    "structure": "O=C1N=C(N2CCC3(CC2)OCc2ccccc23)S/C1=C1/CCCc2c(Cl)cccc21",
    "studyTarget": "human V1a receptor (Homo sapiens (Human), UniProt P37288)",
    "propertyName": "pKi hV1a",
    "recordedValue": 7.7
  },
  {
    "structure": "O=C1N=C(N2CCC3(CC2)OC(=O)c2ccccc23)S/C1=C(/CO)c1ccccc1",
    "studyTarget": "human V1a receptor (Homo sapiens (Human), UniProt P37288)",
    "propertyName": "pKi hV1a",
    "recordedValue": 8.8
  },
  {
    "structure": "[2H]C([2H])([2H])/C(=C1/SC(N2CCC3(CC2)OCc2ccccc23)=NC1=O)c1ccc(C)nc1",
    "studyTarget": "human V1a receptor (Homo sapiens (Human), UniProt P37288)",
    "propertyName": "pKi hV1a",
    "recordedValue": 8.8
  }
]

For every listed record, write down its pKi hV1a.
1. COC/C(=C1/SC(N2CCC3(CC2)OCc2ccccc23)=NC1=O)c1ccccc1
2. C/C(CO[Si](C)(C)C(C)(C)C)=C1/SC(N2CCC3(CC2)OCc2ccccc23)=NC1=O
3. C/C(=C1/SC(N2CCC3(CC2)OCc2ccccc23)=NC1=O)c1cccnc1F
4. C/C(=C1/SC(N2CCC3(CC2)OCc2ccccc23)=NC1=O)c1cccc(Cl)c1
5. O=C1N=C(N2CCC3(CC2)OCc2ccccc23)SC1=C1c2ccccc2-c2ccccc21
6. COC/C(C)=C1\SC(N2CCC3(CC2)OCc2ccccc23)=NC1=O
7. O=C1N=C(N2CCC3(CC2)OCc2ccccc23)SC1=C(CCl)CCl

1: 9.0; 2: 6.5; 3: 9.1; 4: 8.2; 5: 8.2; 6: 8.4; 7: 7.0

---

Biological target: human V1a receptor (Homo sapiens (Human))
Assay: human V1a receptor binding studies (3H-Vasopressin, SPA beads)
Details: membranes of HEK293 cells transiently transfected with human V1a receptor, Ki by Cheng-Prussoff
Definition: the class of an entry is the range in low class: < 8; middle class: ≥ 8 and < 9; high class: ≥ 9 that contains its pKi hV1a.

Consider the following illustrative entries.
[
  {
    "compound": "C/C(=C1\\SC(N2CCC3(CC2)OCc2ccccc23)=NC1=O)c1cccnc1Cl [Example 84]",
    "studyTarget": "human V1a receptor (Homo sapiens (Human))",
    "category": "low class"
  },
  {
    "compound": "O=C1N=C(N2CCC3(CC2)OCc2ccccc23)S/C1=C(/CO)c1ccccc1 [Example 124]",
    "studyTarget": "human V1a receptor (Homo sapiens (Human))",
    "category": "high class"
  },
  {
    "compound": "O=C1N=C(N2CCC3(CC2)OCc2ccccc23)SC1=C(c1ccccc1)c1ccccc1 [Example 82]",
    "studyTarget": "human V1a receptor (Homo sapiens (Human))",
    "category": "middle class"
  },
  {
    "compound": "CC(C)(C)[Si](C)(C)OC/C(=C1\\SC(N2CCC3(CC2)OC(=O)c2ccccc23)=NC1=O)c1ccccc1 [Example 141]",
    "studyTarget": "human V1a receptor (Homo sapiens (Human))",
    "category": "low class"
  }
]

Class (by measured pKi hV1a) for O=C1N=C(N2CCC3(CC2)OCc2ccccc23)S/C1=C1/CCCCc2ccccc21 [Example 47]
high class

---

Consider the following molecules; for each one, report its pKi hV1a.
Target: UniProt:P37288
Assay: human V1a receptor binding studies (3H-Vasopressin, SPA beads)
Conditions: membranes of HEK293 cells transiently transfected with human V1a receptor, Ki by Cheng-Prussoff
Answers are plain numbers.

Previously resolved entries follow.
[
  {
    "molecule": "[2H]C([2H])([2H])/C(=C1\\SC(N2CCC3(CC2)OCc2ccccc23)=NC1=O)c1ccc(C)nc1 [Example 170]",
    "studyTarget": "UniProt:P37288",
    "pKi hV1a": 8.0
  },
  {
    "molecule": "O=C1N=C(N2CCC3(CC2)OC(=O)c2ccccc23)S/C1=C(/CO)c1ccc(Cl)nc1 [Example 145]",
    "studyTarget": "UniProt:P37288",
    "pKi hV1a": 8.0
  },
  {
    "molecule": "C/C(=C1/SC(N2CCC3(CC2)OC(=O)c2ccccc23)=NC1=O)c1ccc(Cl)nc1 [Example 137]",
    "studyTarget": "UniProt:P37288",
    "pKi hV1a": 8.0
  }
]

For every listed record, write down its pKi hV1a.
1. O=C1N=C(N2CCC3(CC2)OCc2ccccc23)SC1=C1CCCCC1 [Example 52]
2. CC(C)(C)[Si](C)(C)OC/C(=C1/SC(N2CCC3(CC2)OCc2ccccc23)=NC1=O)c1ccccc1 [Example 123]
3. C/C(CNC(=O)OC(C)(C)C)=C1\SC(N2CCC3(CC2)OCc2ccccc23)=NC1=O [Example 65]

8.5
8.5
7.7

For every listed record, write down its pKi hV1a.
1. O=C1N=C(N2CCC3(CC2)OCc2ccccc23)S/C1=C1/C(=O)Nc2ccccc21 [Example 74]
2. C/C(=C1\SC(N2CCC3(CC2)OC(=O)c2ccccc23)=NC1=O)c1ccc(Cl)nc1 [Example 138]
3. O=C1N=C(N2CCC3(CC2)OCc2ccccc23)S/C1=C1/CCCCc2ccc(Cl)cc21 [Example 89]
4. CC(=C1SC(N2CCC3(CC2)OCc2ccccc23)=NC1=O)c1c(C)noc1C (stereo in doubt) [Example 105]

[7.5, 8.3, 9.0, 8.7]
